Source: patent US10696688B2

Measured solubility of individual entries
experiment: Thermodynamic aqueous solubility, 96-well plate protocol; assay type: physicochemical; details: water, 25 °C, pH 7, water, thermodynamic from solid, pH = 7; read-out: Aqueous Solubility (μg/ml) at pH = 7

In [3]: df
Out[3]:
                              smiles_record    quantity  reported_result
0  CN1CCN(C(=O)c2ccc(NC(=O)NC3CCN(c4nc(N5CCOCC5)c5oc6ncccc6c5n4)CC3)cc2)CC1  solubility      > 200 µg/mL
1  CC(C)(C)OC(=O)NC1CCN(c2nc(N3CCOCC3)c3sc(C(C)(C)O)cc3n2)CC1  solubility      > 200 µg/mL

Query :: # lookup: solubility of O=C(Nc1ccccc1F)NC1CCN(c2nc(N3CCOCC3)c3sccc3n2)CC1
Result :: > 200 µg/mL

----------
biological target: PI3K-alpha (Homo sapiens, UniProt P42336); experiment: PI3K-α assay (ADP-Glo); type: biochemical; conditions: read-out: IC50 for PI3K (μM) PI3K-α
Sequence (P42336 whole entry): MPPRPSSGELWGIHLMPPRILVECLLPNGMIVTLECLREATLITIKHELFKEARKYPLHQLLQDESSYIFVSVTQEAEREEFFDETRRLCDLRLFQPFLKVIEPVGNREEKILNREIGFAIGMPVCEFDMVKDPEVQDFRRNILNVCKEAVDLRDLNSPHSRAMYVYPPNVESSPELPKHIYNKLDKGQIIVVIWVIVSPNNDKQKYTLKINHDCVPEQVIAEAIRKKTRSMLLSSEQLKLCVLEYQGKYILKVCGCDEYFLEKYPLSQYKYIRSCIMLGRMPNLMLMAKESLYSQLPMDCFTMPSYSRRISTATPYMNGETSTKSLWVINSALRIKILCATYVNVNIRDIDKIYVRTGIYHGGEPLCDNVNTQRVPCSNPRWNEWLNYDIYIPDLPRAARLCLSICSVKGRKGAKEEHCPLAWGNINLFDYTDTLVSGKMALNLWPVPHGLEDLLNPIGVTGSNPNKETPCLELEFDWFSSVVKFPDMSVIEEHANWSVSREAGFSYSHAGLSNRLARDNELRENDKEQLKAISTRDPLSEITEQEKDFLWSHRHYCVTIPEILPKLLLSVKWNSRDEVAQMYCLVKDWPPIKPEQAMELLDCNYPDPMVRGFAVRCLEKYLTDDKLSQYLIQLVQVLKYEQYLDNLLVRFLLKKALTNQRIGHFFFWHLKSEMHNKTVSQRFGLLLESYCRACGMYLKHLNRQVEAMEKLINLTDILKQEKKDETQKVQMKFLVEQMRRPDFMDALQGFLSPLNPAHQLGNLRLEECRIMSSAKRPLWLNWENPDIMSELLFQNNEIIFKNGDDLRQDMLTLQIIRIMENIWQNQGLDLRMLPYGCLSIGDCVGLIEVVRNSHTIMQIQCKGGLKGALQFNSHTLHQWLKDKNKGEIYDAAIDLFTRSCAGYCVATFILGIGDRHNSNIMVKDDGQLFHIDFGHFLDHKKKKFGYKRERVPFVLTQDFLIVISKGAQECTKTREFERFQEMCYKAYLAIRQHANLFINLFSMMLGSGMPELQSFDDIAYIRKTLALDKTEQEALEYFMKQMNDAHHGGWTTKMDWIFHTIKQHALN
Sequence (P27986 whole entry partner): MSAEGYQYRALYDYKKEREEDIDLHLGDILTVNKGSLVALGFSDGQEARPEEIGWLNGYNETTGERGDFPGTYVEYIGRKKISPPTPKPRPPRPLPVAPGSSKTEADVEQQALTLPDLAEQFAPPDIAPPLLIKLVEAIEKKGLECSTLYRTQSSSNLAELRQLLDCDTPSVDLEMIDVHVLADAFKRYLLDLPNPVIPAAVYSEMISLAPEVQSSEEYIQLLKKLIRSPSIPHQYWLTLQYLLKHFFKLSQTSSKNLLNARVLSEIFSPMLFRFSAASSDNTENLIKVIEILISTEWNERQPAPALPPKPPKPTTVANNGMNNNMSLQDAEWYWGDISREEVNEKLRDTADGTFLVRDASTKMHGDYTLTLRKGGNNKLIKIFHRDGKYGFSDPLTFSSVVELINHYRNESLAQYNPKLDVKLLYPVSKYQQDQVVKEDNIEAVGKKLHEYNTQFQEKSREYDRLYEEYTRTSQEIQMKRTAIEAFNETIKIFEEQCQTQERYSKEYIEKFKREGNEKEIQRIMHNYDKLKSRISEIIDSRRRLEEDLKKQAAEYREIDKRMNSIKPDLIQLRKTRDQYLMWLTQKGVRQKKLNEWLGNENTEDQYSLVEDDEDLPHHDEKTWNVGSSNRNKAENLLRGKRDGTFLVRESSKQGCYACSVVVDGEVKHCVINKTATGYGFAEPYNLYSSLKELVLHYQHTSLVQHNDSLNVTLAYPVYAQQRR
QUANTITY: IC50 (µM)
Numeric only. Scale: µM

Query :: For the compound shown here, CCOC(=O)c1ccc(NC(=O)NC2CCN(c3nc(N4CCOCC4)c4oc5ncccc5c4n3)CC2)cc1 [Compound 8] , give the reported IC50.
Result :: 0.008

----------
target: PI3K-alpha (Homo sapiens, UniProt P42336); assay: PI3K-α assay (ADP-Glo); assay type: biochemical; details: at 500 nM (0.5 μM); NI = no inhibition at tested concentration; read-out: % PI3Kα inhibition at 500 nM
QUANTITY: inhibition at 0.5 µM (%)
The reply should be a number in %, with the unit left off.

Check out these entries, answers already filled in.
                              smiles_record  reported_result
0  CC(C)(C)OC(=O)NC1CCN(c2nc(N3CCOCC3)c3oc4ncccc4c3n2)CC1             67.3
1  CCOC(=O)c1ccc(NC(=O)NC2CCN(c3nc(N4CCOCC4)c4sc(C(C)(C)O)cc4n3)CC2)cc1               40
2  CCOC(=O)c1ccc(NC(=O)NC2CCN(c3nc(N4CCOCC4)c4sccc4n3)CC2)cc1               59

Query :: Look up inhibition at 0.5 µM for this compound: CCc1ccc(NC(=O)NC2CCN(c3nc(N4CCOCC4)c4sccc4n3)CC2)cc1
Result :: 74

Query :: Which inhibition at 0.5 µM reading was recorded for the compound Cc1ccccc1NC(=O)NC1CCN(c2nc(N3CCOCC3)c3sccc3n2)CC1 ?
Result :: 68

Query :: What does the data say about its inhibition at 0.5 µM? Entry: CC(C)(C)c1ccc(S(=O)(=O)NC2CCN(c3nc(N4CCOCC4)c4sccc4n3)CC2)cc1
Result :: 56

----------
Readings of solubility for the listed compounds
assay: Thermodynamic aqueous solubility, 96-well plate protocol; assay type: physicochemical; conditions: water (aqueous, pH 7), 25 °C, pH 7, water, thermodynamic from solid, pH = 7; read-out: Aqueous Solubility (μg/ml) at pH = 7
Provide the reading as a plain figure in µg/mL.

In [3]: df
Out[3]:
                                   compound  output_unit  reported_result
0  CC(C)(C)OC(=O)NC1CCN(c2nc(N3CCOCC3)c3sc(C(C)(C)O)cc3n2)CC1 [Compound 17]        µg/mL              200
1  Cc1ccccc1NC(=O)NC1CCN(c2nc(N3CCOCC3)c3sccc3n2)CC1 [Compound 23]        µg/mL               20
2  CC(C)(C)OC(=O)NC1CCN(c2nc(N3CCOCC3)c3oc4ncccc4c3n2)CC1 [Compound 6]        µg/mL               10

Query :: # get_value(readout='solubility', item= O=S(=O)(NC1CCN(c2nc(N3CCOCC3)c3sccc3n2)CC1)c1ccc2ccccc2c1 [Compound 30] )
Result :: 5
